B1: CSNK1G1 (parent)
chain: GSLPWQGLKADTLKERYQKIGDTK

# Variants of: B1
# EXPERIMENT: protein stability index of a GFP-peptide fusion (GPS, HEK-293T) (PSI 1-6); higher = more stable;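 further: lentivirally expressed fusions sorted by FACS into six bins by GFP to DsRed ratio, PSI derived from sequencing read proportions per bin multiplied by bin number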
# MEASUREMENT PARAMETERS: c terminus: a fixed tail appended
// false (0) strictly below 4 in protein stability index; true (1) otherwise

Reference set (2 entries):
K19N	true (1)
L13N	true (1)

Does D22V have a reported protein stability index of at least 4? false (0)

Does A10T have a reported protein stability index of at least 4? true (1)

Does E15S have a reported protein stability index of at least 4? false (0)
